Experiment: qHTS Assay for Identifying Gametocytocidal Compounds (AID 743244); note: potency is the fitted concentration of half-maximal effect
Settings: P. falciparum 3D7 stage III-V gametocytes, alamarBlue, 72 h
Records with an inconclusive call do not appear. Active and inactive are the calls of the source. Calls come from the whole dose curve; as a rule, active = well fitted curve in the direction sought with a large enough effect; inconclusive = small, poorly fitted or top-dose-only effect, or another doubt; inactive = no such curve, though single readings can be large or run the other way.
For each of the compounds below, state its Potency.

Prompt line: Fill blank: measured Potency of the compound C[C@@H]1CC[C@H]2[C@@H](C)C(=O)O[C@@H]3O[C@@]4(C)CC[C@@H]1[C@]32OO4 is ____.
Response line: 0.132 µM (active)

Prompt line: What value of Potency has been recorded for this entry: O=C1NC2CCCCN2C12CCN(CCCN1c3ccccc3CCc3ccc(Cl)cc31)CC2 (stereo not given)
Response line: 22.4 µM (active)

Prompt line: Need Potency of O=C(Nc1ccc(Cl)cc1)Nc1ccc(Cl)c(C(F)(F)F)c1 , thanks.
Response line: 12.6 µM (active)

Prompt line: Request the reported Potency associated with Clc1ccc(CO/N=C(\Cn2ccnc2)c2ccc(Cl)cc2Cl)c(Cl)c1
Response line: 10 µM (active)

Prompt line: Look up Potency: CC(C(O)c1ccccc1)N(C)CCOC(c1ccccc1)c1ccccc1 (stereo not given)
Response line: 5.01 µM (active)

Prompt line: Look up Potency for this compound: Clc1ccc(CSC(Cn2ccnc2)c2ccc(Cl)cc2Cl)cc1 (stereo not given)
Response line: 3.98 µM (active)

Prompt line: So what's the measured Potency for this one? NC(N)=N/N=C/c1c(Cl)cccc1Cl
Response line: 3.55 µM (active)

Prompt line: Reported Potency for CNC(=O)Oc1cccc2ccccc12 : what is it?
Response line: 35.5 µM (active)

Prompt line: Which Potency is listed for C[C@@H]1C[C@@H]([C@H](O)CC2CC(=O)NC(=O)C2)C(=O)[C@@H](C)C1 ?
Response line: 2.82 µM (active)

Prompt line: Tell me the measured Potency of CN1C[C@H](C(=O)N[C@]2(C)O[C@@]3(O)[C@@H]4CCCN4C(=O)[C@H](Cc4ccccc4)N3C2=O)C[C@@H]2c3cccc4[nH]cc(c34)C[C@H]21 , please.
Response line: 2.35 µM (active)

* * *

Test system: CP269
Test: qHTS profiling for inhibitors of Plasmodium falciparum proliferation (AID 504749); note: nearly all actives have a fitted effect of over 60% in size
Conditions: P. falciparum in erythrocytes, SYBR Green DNA, 72 h; series mostly up to 28.7 µM
Results filed as inconclusive are left out. Active and inactive are the calls of the source. The call rests on the fitted dose curve; in most records, active means well fitted inhibition curve with a large enough effect; inconclusive means small, poorly fitted or top-dose-only effect; inactive means flat fitted curve, though single readings scatter.
Pick from Yes (active), No (inactive) when you respond.

Prompt line: Short answer needed: outcome of this test for Clc1ccc(CO/N=C(\Cn2ccnc2)c2ccc(Cl)cc2Cl)c(Cl)c1 ?
Response line: Yes

Prompt line: Assay outcome for COCC(=O)N(c1c(C)cccc1C)C(C)C(=O)OC (stereo not drawn) : what was it?
Response line: No

Prompt line: GET /call?item= O=C(NC(=O)c1c(F)cccc1F)Nc1cc(Cl)c(OC(F)(F)C(F)C(F)(F)F)cc1Cl (stereo not drawn) returns the recorded outcome of this test.
Response line: No

Prompt line: Please share the test call associated with COC(=O)C1=CCCN(C)C1 .
Response line: No

Prompt line: Called result for CCC1(c2ccccc2)CCC(=O)NC1=O (stereo not drawn)
Response line: No

Prompt line: Could you check what this test reported for CC(C)NCC(O)c1ccc(N)c(C#N)c1 (stereo not drawn) ?
Response line: No

Prompt line: Could you kindly confirm the outcome this assay logged for C[C@]12CC[C@H]3[C@@H](CC=C4C[C@@H](O)CC[C@@]43C)[C@@H]1CC[C@@H]2O ?
Response line: No

Prompt line: # lookup: test call for c1ccc2nc(N3CCNCC3)ccc2c1
Response line: No

Prompt line: So what was the verdict on Cc1ccc(N=CN(C)C=Nc2ccc(C)cc2C)c(C)c1 in this test?
Response line: No

Prompt line: Lab log entry: NCc1cccnc1 — outcome as called in the assay?
Response line: No

Prompt line: Assay outcome for Oc1c(Br)cc(Br)cc1Br : what was it?
Response line: No

Prompt line: // outcome(item) with item = Cc1ncc2n1-c1ccc(Cl)cc1C(c1ccccc1F)=NC2
Response line: No

Prompt line: Check the results log: what was the call for CCCCCCCCCCCC[N+](C)(C)CCOc1ccccc1 ?
Response line: Yes

Prompt line: State the result this test recorded for OC(O)C(Cl)(Cl)Cl .
Response line: No

Prompt line: What call does the record list for C[N+](C)(C)CCOC(=O)C(O)(c1ccccc1)c1ccccc1 ?
Response line: No

Prompt line: Please indicate how the test categorized N#Cc1nn(-c2c(Cl)cc(C(F)(F)F)cc2Cl)c(N)c1S(=O)C(F)(F)F (stereo not drawn) .
Response line: Yes

Prompt line: GET /call?item= COP(=O)(OC)C(O)C(Cl)(Cl)Cl (stereo not drawn) returns the recorded outcome of this test.
Response line: No

Prompt line: Would you mind telling me which call this test gave CC[C@]1(O)CC[C@H]2[C@@H]3CCC4=CCCC[C@@H]4[C@H]3CC[C@@]21C ?
Response line: No

Prompt line: Returns: the outcome recorded for NC(=O)OCCCc1ccccc1 in this assay.
Response line: No

Prompt line: Per the records of this test, what outcome belongs to C[C@]12Cc3nonc3C[C@@H]1CC[C@@H]1[C@@H]2CC[C@@]2(C)[C@H]1CC[C@]2(C)O ?
Response line: No

Prompt line: State the result this test recorded for CN1C(=O)CN=C(c2ccccc2)c2cc([N+](=O)[O-])ccc21 .
Response line: No

Prompt line: Identify the outcome logged in this assay for the molecule shown: CC(C)(C)OC(=O)c1ncn2c1[C@@H]1CCCN1C(=O)c1c(Br)cccc1-2
Response line: No

Prompt line: Please state the recorded outcome for this molecule: C[C@H]1C(=O)O[C@@H]2CCN3CC=C(COC(=O)[C@](C)(O)[C@]1(C)O)[C@H]23
Response line: No

Prompt line: Just curious, what result did CCCCCCCCC(=O)NCc1ccc(O)c(OC)c1 get here?
Response line: No

Prompt line: Can you look up the reported call for CCN(CC)C(C)C(=O)c1ccccc1 (stereo not drawn) for me?
Response line: No

Prompt line: Please state the recorded outcome for this molecule: Cc1c(Cl)c(=O)oc2cc(OP(=O)(OCCCl)OCCCl)ccc12
Response line: Yes

Prompt line: Tell me the assay call for CN(C)C(=S)SSC(=S)N(C)C please.
Response line: Yes

Prompt line: Call for entry O=C(O)c1nn(Cc2ccc(Cl)cc2Cl)c2ccccc12 :
Response line: No

Prompt line: What outcome does the record of this test show for C=CCOC(Cn1ccnc1)c1ccc(Cl)cc1Cl (stereo not drawn) ?
Response line: Yes

Prompt line: What was the test verdict on CNC(=O)Oc1cccc2ccccc12 ?
Response line: No

Prompt line: For CCC1(CC)C(=O)NC(=O)NC1=O , which call appears in the assay record?
Response line: No

Prompt line: Which outcome did this test record for the molecule O=c1n(Cl)c(=O)n(Cl)c(=O)n1Cl ?
Response line: No

Prompt line: Could you kindly confirm the outcome this assay logged for CC(C)[N+](C)(CCC(C(N)=O)(c1ccccc1)c1ccccc1)C(C)C ?
Response line: No

* * *

Assay: Cellular Toxicity (caspase-3) HepG2 (AID 654);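 for caspase-3 activation: cells exposed to compound for 16 hours before reading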
Conditions: HepG2 caspase-3 activation, luminescence; series mostly up to 92.2 µM
Calls of active or inactive are those of the source. The call rests on the fitted dose curve; in most records, active means well fitted activation curve with a large enough effect; inconclusive means small, poorly fitted or top-dose-only effect; inactive means flat fitted curve, though single readings scatter.
Assign a class; possible classes are active, inactive

Prompt line: State the result this test recorded for C[C@@H]1C[C@@H]([C@H](O)CC2CC(=O)NC(=O)C2)C(=O)[C@@H](C)C1 .
Response line: inactive

Prompt line: Recorded call for CCCCCCCCCCCC[N+](C)(C)CCOc1ccccc1 ?
Response line: active

Prompt line: Record request — test call for CN(C)C(=S)SSC(=S)N(C)C
Response line: inactive

Prompt line: Outcome logged for CC[n+]1c(-c2ccccc2)c2cc(N)ccc2c2ccc(N)cc21 in this assay:
Response line: inactive

Prompt line: Which outcome was assigned to O=C(CCl)c1ccc(Cl)cc1Cl in this test?
Response line: inactive

Prompt line: What call does the record list for COP(=O)(OC)OC=C(Cl)Cl ?
Response line: inactive

Prompt line: Outcome? CNC(=O)Oc1cccc2ccccc12
Response line: inactive

* * *

Settings: Ebola virus entry assay, reporter ratio channel; Channel type: primary
The source made the active and inactive calls.
quantity measured: AC50

As a guide, the following entries are already answered.
compound	AC50
CN1CCN(CCCN2c3ccccc3Sc3ccc(S(=O)(=O)N(C)C)cc32)CC1	2.24 µM (active)
CC(=O)c1ccc2c(c1)N(CCCN1CCC(CCO)CC1)c1ccccc1S2	2.82 µM (active)
CCCCCCCCCCOCC(O)CN (stereo unspecified)	1.78 µM (active)
N#Cc1cc(NC(=O)C(=O)O)c(Cl)c(NC(=O)C(=O)O)c1	inactive

Prompt line: Can you look up the measured AC50 of CNC(=O)c1c(I)c(NC(=O)CCCCC(=O)Nc2c(I)c(C(=O)O)c(I)c(C(=O)NC)c2I)c(I)c(C(=O)O)c1I for me?
Response line: inactive

Prompt line: For CC1CCc2cc(F)cc3c(=O)c(C(=O)O)cn1c23 (stereo unspecified) , what is its reported AC50?
Response line: inactive
